A collection of molecules and their measured Fold depletion in AML
- Test system: tet-on competent MLL/AF9+Nras AML
- Assay Method Text: Pooled negative selection RNAi screening (deep sequencing)
- Format: cell-based, mouse
- Conditions Used: deep sequencing reads, On Dox compared to T0

Molecule	Fold depletion in AML (Fold)
Dnajc10.2057: shRNA, SEQ ID NO: 113 (nucleic acid) TGCTGTTGACAGTGAGCGCTCCAACGACAGTGGTATTCAATAGTGAAGCCACAGATGTATTGAATACCACTGTCGTTGGATTGCCTACTGCCTCGGA	8.99
Cx3cr1.1223: shRNA, SEQ ID NO: 111 (nucleic acid) TGCTGTTGACAGTGAGCGACTGCATCTTATGTGCAAGAAATAGTGAAGCCACAGATGTATTTCTTGCACATAAGATGCAGGTGCCTACTGCCTCGGA	12.98
Atp6v0d1.481: shRNA, SEQ ID NO: 93 (nucleic acid) TGCTGTTGACAGTGAGCGACACCAGCGTTCAATAGCTGAATAGTGAAGCCACAGATGTATTCAGCTATTGAACGCTGGTGCTGCCTACTGCCTCGGA	12.03
